The measurements presented in this section are drawn from PubChem BioAssay (Tox21).

assay: qHTS assay for small molecule disruptors of the mitochondrial membrane potential (AID 720635); details: HepG2 mitochondrial membrane potential, Mito-MPS dye ratio; series mostly up to 83.2 µM
Results filed as inconclusive are left out. Calls of active or inactive are those of the source. Calls follow the shape of the dose curve; as a rule, active = well fitted inhibition curve with a large enough effect in the signal ratio in the repeat runs; inconclusive = weak or mixed curves, or effect the other way; inactive = flat fitted curve, though single readings scatter; the % refers to the signal ratio.
Respond using exactly one of the listed classes: Yes = active, No = inactive

NCCO/C=C/[C@H](N)C(=O)O :: No
NCC1CCC(C(=O)O)CC1 (configuration not stated) :: No
CC(C)(Oc1ccc(C2CCCc3ccccc32)cc1)C(=O)O (configuration not stated) :: No
CC/C=C\C/C=C\C/C=C\C/C=C\C/C=C\C/C=C\CCC(=O)O :: No
CC(=O)Oc1cc(C(F)(F)F)ccc1C(=O)O :: No

Query :: Could you check what this test reported for O=C(O)[C@@H]1C[C@H](CP(=O)(O)O)CCN1 ?
Result :: No
